- System: Malme-3M
- procedureSummary: NCI tumour cell line growth inhibition, 48 h
The source made the active and inactive calls. Cut-off read from the data, not from the text of the source: active = GI50 up to about 1.1 µM and inactive = higher.
Classes used: active, inactive

molecule	categoryLabel
C=C1C(=O)OC2C=C(CCC(C)=O)C(C)C(OC(C)=O)CC12 (stereo not given)	inactive
COc1ccc(-c2oc3cc(O)c(OC)c(O)c3c(=O)c2O)cc1	inactive
CN(C)CCCNCc1cccc2ccccc12	inactive
O=[N+]([O-])c1cc(Cl)ccc1S(=O)(=O)c1cc(Cl)cc2c1NCCC2	inactive
COc1ccc2c(c1)CC[C@@H]1C2CC[C@]2(C)C(=O)N(CCN(C)C)C(=O)CC12 (stereo not given in full)	inactive
Cc1ccc(S(=O)(=O)N/N=C(\c2nc3ccc([N+](=O)[O-])cc3nc2O)C(O)c2ccccc2Cl)cc1 (stereo not given)	inactive
C=C(OC1C(C)=C2C(C1OC(=O)CCCCCCC)C(C)(OC(C)=O)CC(OC(=O)CCC)C1(O)C2OC(=O)C1(C)O)/C(C)=C/C (stereo not given)	active
Oc1cc(CN2COc3ccccc32)c(O)cc1CNC1CCCCC1	inactive
COC[C@H](Cc1ccccc1)/N=C/c1ccccc1	inactive
O=C(O)c1ccccc1/C=C1\Cc2cc3c(cc2C1=O)CCC3	inactive

Values were extracted from ChEMBL document CHEMBL1201862.
